- Test summary: binders from COS7 lysate, DM2A8 probe, primary screen, torsin A project, cell lysate, small-molecule microarray, fluorescence 635/667 (AID 1065)
- Measurement parameters: higher = more signal, COS7 lysate expressing mutant human TOR1A
// values below are reported composite z-score
Could you respond with only the numeric value?

Here's what some known entries look like.
# Compound, Readout label, Endpoint value
rows = [
    ("CCOC(=O)C1=CC[C@@H](c2ccccc2)N(S(=O)(=O)c2ccc(C)cc2)[C@H]1c1ccc(C#N)cc1", "composite z-score", 0.381),
    ("CN1C(=O)C2C(C1=O)C1C=C(c3ccc(CO)cc3)C2C(C2CC2)N1Cc1cc2c(cc1Br)OCO2 (stereo not given)", "composite z-score", 1.44),
    ("C[C@]1(C(=O)NCC(F)(F)F)c2ccccc2C(=O)N(Cc2cc(F)cc(C(F)(F)F)c2)[C@H]1c1ccc(CO)cc1", "composite z-score", 0.553),
]

response.value for CCCC[C@H]1OB(O)C[C@H]2C1=C(C)Cn1c(=O)n(-c3ccccc3)c(=O)n12 (field: composite z-score) = 0.383

Just so you know, measured composite z-score for COc1ccc(C#Cc2ccc3c(c2)[C@]2(C(=O)N3)[C@H](C(=O)N3CCN(c4ncccn4)CC3)[C@H]3C(=O)O[C@H](c4ccccc4)[C@H](c4ccccc4)N3[C@@H]2c2ccc(O)cc2)cc1 came out at 0.308

====

- Test summary: viability profiling in RPMI8226 myeloma cells – cell-based, resazurin fluorescence, basal, 24 h, PK04 Diversity Set, profiling panel (AID 1180);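 also: RPMI8826 multiple myeloma cell line at 5000 cells per well; test concentration not given here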
- Measurement parameters: higher = more signal
Readout label: z-score
// return a plain number; no unit text

Illustrative cases are given below, each with its answer.
# Compound, z-score
rows = [
    ("C=CCOC(=O)[C@@H]1[C@H]2C(=O)O[C@H](c3ccccc3)[C@H](c3ccccc3)N2[C@H](c2ccc(OCCOC(=O)[C@H]3C[C@H]4C(=O)N[C@@H](CCCC[N+](C)(C)C)C(=O)N4[C@H]3c3cccc(OCCO)c3)cc2)[C@@]12C(=O)Nc1ccc(I)cc12", -0.521),
    ("CCCNC(=O)[C@@]1(C)c2ccccc2C(=O)N(Cc2cc(F)cc(C(F)(F)F)c2)[C@H]1c1ccc(CO)cc1", 1.63),
    ("CO[C@H]1O[C@H](CO)[C@@H](OC(=O)Nc2ccc3c(c2)OCO3)[C@H](OC(=O)Nc2ccc3c(c2)OCO3)[C@H]1OC(=O)Nc1ccc2c(c1)OCO2", -0.511),
]

z-score reading for O=C1C2C=CC(C(O)CCc3ccccc3)N(Nc3ccccc3)C2C(=O)N1c1ccccc1 (configuration not stated) : -1.67

For O=P(NCC1(CC2(c3ccccc3)CO2)CC1)(c1ccccc1)c1ccccc1 (configuration not stated) the compound record lists z-score as 0.0301

Record [N-]=[N+]=NCc1ccccc1[C@@H]1OC(c2ccc(OCCCO)cc2)=N[C@]1(Cc1ccccc1N=[N+]=[N-])C(N)=O . Reported z-score: -1.2

The reported value for CO[C@H]1O[C@H](CO)[C@@H](OC(=O)Nc2cccc(F)c2)[C@H](OC(=O)Nc2ccccc2-c2ccccc2)[C@@H]1OC(=O)Nc1ccccc1-c1ccccc1 in terms of z-score is -1.78

====

- Tested on: Plasmodium falciparum Sir2 (PF13_0152, Sir2A)
- Test summary: Plasmodium falciparum Sir2A binding compounds – biochemical, small-molecule microarray, 635 nm fluorescence, primary screen (AID 1098);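 also: score merges spot fluorescence intensity with its signal-to-noise ratio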
- Measurement parameters: fluorescence 635 nm, higher = more signal
Label rule, in plain words: composite z-score of 1 and up is Satisfied, under 1 is Not satisfied.

Check out these entries, answers already filled in.
# Compound, Classification
data = [
    ("COCCCNC(=O)[C@@]1(C)c2ccccc2C(=O)N(Cc2ccccc2)[C@H]1c1ccc(CO)cc1", "Satisfied"),
    ("Oc1ccc2cc[n+](Cc3cccc(OC(F)(F)F)c3)cc2c1", "Satisfied"),
    ("CCCCC(=O)N(Cc1ccccc1F)[C@@H]1CC(C(=O)NCCO)=C[C@H](Oc2c(I)cc(CO)cc2OC)[C@H]1O", "Satisfied"),
]

Req: Identify whether the reported composite z-score of the following compound is 1 or greater: Cn1c2c(c3ccccc31)C(=O)C1NC2C=CC1(C)C(=O)OCc1ccccc1 (stereo not given)
Resp: Satisfied

Req: For this compound, is measured composite z-score 1 or higher? O=[N+]([O-])c1ccc(C[n+]2ccc(CCCO)cc2)o1
Resp: Not satisfied
